# Lookup of reported inhibition at 0.2 µM keyed by entry
Biological target: canine TRPM8 (Canis lupus familiaris)
Construct: expressed in transfected cells
Experiment: In Vitro Canine TRPM8 Functional Assay (icilin-induced intracellular Ca2+ fluorescence, FLIPR/FDSS)
Format: cell-based
Conditions: 0.2 μM test compound; icilin challenge; HEK293 cells stably expressing canine TRPM8
Procedure: The functional activity of representative compounds of the formula (I) of the present invention were measured by measuring changes in intracellular calcium concentration using a Ca^2+-sensitive fluorescent dye. The changes in fluorescent signal were monitored by a fluorescence plate reader, either a FLIPR™ (Molecular Devices) or FDSS (Hamamatsu). […]
Where a name gives a salt, the structure may show the parent alone.
RESULT TYPE: inhibition at 0.2 µM

> print(dat)
                                   compound           result.type  result
1  CC1(/C=C/c2nc3cc(-c4ccccc4C(F)(F)F)ccc3[nH]2)CCOCC1  inhibition at 0.2 µM    101%
2  FC1=CCC(C=Cc2nc3cc(-c4ccccc4OC(F)(F)F)ccc3[nH]2)CC1 (centres unmarked) [Compound 32, hydrochloride salt]  inhibition at 0.2 µM    101%
3  Fc1ccccc1-c1ccc2[nH]c(/C=C/C3CCOCC3)nc2c1 [Compound 52, trifluoroacetic acid salt]  inhibition at 0.2 µM     91%
4    Cc1ccsc1-c1ccc2[nH]c(C=CC3CCCCC3)nc2c1  inhibition at 0.2 µM    102%
5  COc1ccc(F)cc1-c1ccc2[nH]c(C=CC3CCC(F)(F)CC3)nc2c1 [Compound 45, hydrochloride salt]  inhibition at 0.2 µM    101%
6  FC1=CCC(C=Cc2nc3cc(-c4ccccc4Cl)ccc3[nH]2)CC1 (centres unmarked) [Compound 34, hydrochloride salt]  inhibition at 0.2 µM    101%
7  Fc1ccc(Cl)c(-c2ccc3[nH]c(C=CC4CCCCC4)nc3c2)c1  inhibition at 0.2 µM    101%
8  FC1(F)CCC(/C=C/c2nc3cc(-c4ccccc4C(F)(F)F)ccc3[nH]2)CC1 [Compound 30, hydrochloride salt]  inhibition at 0.2 µM    102%

====

molecular target: canine TRPM8 (Canis lupus familiaris); assay: In Vitro Canine TRPM8 Functional Assay (icilin-induced intracellular Ca2+ fluorescence, FLIPR/FDSS); conditions: icilin challenge (~80% maximal response); HEK293 cells stably expressing canine TRPM8; eight-point dose-response
pIC50: −log10 of the molar value. Where a name gives a salt, the structure may show the parent alone.
Label fulfilled when pIC50 is at or above 8; anything below gets not fulfilled.

> print(dat)
                                   compound  assigned.class
1  CC(=O)c1ccccc1-c1ccc2[nH]c(C=CC3CCCCC3)nc2c1 [Compound 8]   not fulfilled
2  COc1cccc(OC)c1-c1ccc2[nH]c(C=CC3CC=C(F)CC3)nc2c1 (stereo not shown) [Compound 40, hydrochloride salt]       fulfilled
3  COc1cccc(OC)c1-c1ccc2[nH]c(C=CC3CCCCC3)nc2c1 [Compound 14]       fulfilled
4  COc1cccc(F)c1-c1ccc2[nH]c(C=CC3CCC(F)(F)CC3)nc2c1 [Compound 44, hydrochloride salt]       fulfilled
5  FC1=CCC(C=Cc2nc3cc(-c4ccccc4OC(F)(F)F)ccc3[nH]2)CC1 (stereo not shown) [Compound 32, hydrochloride salt]       fulfilled
6  FC(F)(F)Oc1ccccc1-c1ccc2nc(C=CC3CCCC3)[nH]c2c1 [Compound 26]   not fulfilled
7  Clc1ccc(Cl)c(-c2ccc3[nH]c(C=CC4CCCCC4)nc3c2)c1 [Compound 19]   not fulfilled
8  FC(F)(F)c1ccccc1-c1ccc2[nH]c(/C=C/C3CCSCC3)nc2c1 [Compound 51]   not fulfilled
9  COc1cccc(F)c1-c1ccc2[nH]c(C=CC3CCCCC3)nc2c1 [Compound 11]   not fulfilled

====

Target: canine TRPM8 (Canis lupus familiaris)
Construct: expressed in transfected cells
Assay: In Vitro Canine TRPM8 Functional Assay (icilin-induced intracellular Ca2+ fluorescence, FLIPR/FDSS)
Assay type: cell-based
Conditions: 0.2 μM test compound; icilin challenge; HEK293 cells stably expressing canine TRPM8
Procedure: The functional activity of representative compounds of the formula (I) of the present invention were measured by measuring changes in intracellular calcium concentration using a Ca^2+-sensitive fluorescent dye. The changes in fluorescent signal were monitored by a fluorescence plate reader, either a FLIPR™ (Molecular Devices) or FDSS (Hamamatsu). […]
Counter-ions that a name gives are not always drawn.
# Lookup of reported inhibition at 0.2 µM keyed by entry
RESULT TYPE: inhibition at 0.2 µM (%)

> print(dat)
                                   molecule                         assayed.target           result.type  result
1  FC1(F)CCC(C=Cc2nc3cc(-c4ccccc4OC(F)(F)F)ccc3[nH]2)CC1 [Compound 37, hydrochloride salt]  canine TRPM8 (Canis lupus familiaris)  inhibition at 0.2 µM     100
2  COc1ccc(Cl)cc1-c1ccc2[nH]c(C=CC3CCCCC3)nc2c1 [Compound 20]  canine TRPM8 (Canis lupus familiaris)  inhibition at 0.2 µM      85
3  FC(F)(F)c1cccc(C(F)(F)F)c1-c1ccc2[nH]c(/C=C/C3CCCCC3)nc2c1 [Compound 58]  canine TRPM8 (Canis lupus familiaris)  inhibition at 0.2 µM      83
4  Cc1cccc(C)c1-c1ccc2[nH]c(C=CC3CC=C(F)CC3)nc2c1 (centres unmarked) [Compound 35, hydrochloride salt]  canine TRPM8 (Canis lupus familiaris)  inhibition at 0.2 µM     100
5  COc1cccc(F)c1-c1ccc2[nH]c(C=CC3CCCCC3)nc2c1 [Compound 11]  canine TRPM8 (Canis lupus familiaris)  inhibition at 0.2 µM     102
6  FC1(F)CCC(C=Cc2nc3cc(-c4ccccc4Cl)ccc3[nH]2)CC1 [Compound 38, hydrochloride salt]  canine TRPM8 (Canis lupus familiaris)  inhibition at 0.2 µM     101
7  COc1cccc(OC)c1-c1ccc2[nH]c(C=CC3CCCCC3)nc2c1 [Compound 14]  canine TRPM8 (Canis lupus familiaris)  inhibition at 0.2 µM      95
8  Fc1cccc(C(F)(F)F)c1-c1ccc2[nH]c(/C=C/C3CCCCC3)nc2c1 [Compound 57]  canine TRPM8 (Canis lupus familiaris)  inhibition at 0.2 µM     101

====

target: canine TRPM8 (Canis lupus familiaris, UniProt Q1A7N1); construct: expressed in transfected cells; assay: In Vitro Canine TRPM8 Functional Assay (icilin-induced intracellular Ca2+ fluorescence, FLIPR/FDSS); format: cell-based; details: icilin challenge (~80% maximal response); HEK293 cells stably expressing canine TRPM8; eight-point dose-response
Sequence (Q1A7N1 1-1104): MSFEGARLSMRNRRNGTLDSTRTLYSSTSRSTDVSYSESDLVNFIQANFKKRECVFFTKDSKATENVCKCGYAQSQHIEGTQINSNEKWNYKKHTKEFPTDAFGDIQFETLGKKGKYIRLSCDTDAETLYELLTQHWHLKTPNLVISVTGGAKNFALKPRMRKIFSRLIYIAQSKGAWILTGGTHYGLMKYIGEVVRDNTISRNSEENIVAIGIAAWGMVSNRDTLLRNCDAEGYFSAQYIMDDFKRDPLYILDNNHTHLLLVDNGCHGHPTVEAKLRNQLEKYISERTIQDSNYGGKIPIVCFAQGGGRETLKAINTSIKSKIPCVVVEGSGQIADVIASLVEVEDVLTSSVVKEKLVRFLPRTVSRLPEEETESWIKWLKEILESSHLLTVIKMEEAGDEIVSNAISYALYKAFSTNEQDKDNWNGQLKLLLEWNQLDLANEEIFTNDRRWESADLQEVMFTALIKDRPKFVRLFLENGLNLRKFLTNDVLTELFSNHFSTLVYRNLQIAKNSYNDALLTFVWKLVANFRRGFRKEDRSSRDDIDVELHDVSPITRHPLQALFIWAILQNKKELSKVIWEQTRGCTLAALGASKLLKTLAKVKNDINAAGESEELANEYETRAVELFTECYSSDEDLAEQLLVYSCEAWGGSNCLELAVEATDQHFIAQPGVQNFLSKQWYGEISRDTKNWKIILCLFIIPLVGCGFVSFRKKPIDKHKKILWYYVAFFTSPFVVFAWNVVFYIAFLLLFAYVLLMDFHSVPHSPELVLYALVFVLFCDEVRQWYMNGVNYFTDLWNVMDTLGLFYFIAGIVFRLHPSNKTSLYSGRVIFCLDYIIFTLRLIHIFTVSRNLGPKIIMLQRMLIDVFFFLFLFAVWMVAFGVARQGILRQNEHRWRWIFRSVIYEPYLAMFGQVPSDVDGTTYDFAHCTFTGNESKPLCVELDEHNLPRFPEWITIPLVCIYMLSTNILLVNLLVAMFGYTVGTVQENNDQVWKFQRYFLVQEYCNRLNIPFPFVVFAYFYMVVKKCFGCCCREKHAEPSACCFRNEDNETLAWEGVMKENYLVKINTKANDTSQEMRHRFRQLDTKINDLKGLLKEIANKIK
Counter-ions that a name gives are not always drawn.
Grouping by measured IC50 is done with the following cut points: low value (below 10 nM), medium value (10 nM to below 20 nM), high value (20 nM or more)

> print(dat)
                                    compound  assigned.class
 1  FC(F)(F)c1ccccc1-c1ccc2[nH]c(/C=C/C3CCOCC3)nc2c1 [Compound 50, hydrochloride]    medium value
 2  Fc1cccc(OC(F)(F)F)c1-c1ccc2[nH]c(/C=C/C3CCCCC3)nc2c1 [Compound 59]       low value
 3  Fc1cccc(F)c1-c1ccc2[nH]c(C=CC3CCCCC3)nc2c1 [Compound 15]      high value
 4  COc1cc(F)ccc1-c1ccc2[nH]c(C=CC3CCCCC3)nc2c1 [Compound 12]      high value
 5  COc1ccc(Cl)c(-c2ccc3[nH]c(C=CC4CCCCC4)nc3c2)c1 [Compound 18]      high value
 6  FC(F)(F)c1ncccc1-c1ccc2[nH]c(/C=C/C3CCCCC3)nc2c1 [Compound 56, hydrochloride]    medium value
 7  COc1ccc(Cl)cc1-c1ccc2[nH]c(C=CC3CCCCC3)nc2c1 [Compound 20]      high value
 8  Fc1ccc(Cl)c(-c2ccc3[nH]c(C=CC4CCCCC4)nc3c2)c1 [Compound 9]    medium value
 9  CC1(C)CCC(/C=C/c2nc3cc(-c4ccccc4C(F)(F)F)ccc3[nH]2)CC1 [Compound 64, hydrochloride]      high value
10  C/C(=C\c1nc2cc(-c3ccccc3C(F)(F)F)ccc2[nH]1)C1CCCCC1 [Compound 69]    medium value
11  Cc1cc(-c2ccccc2C(F)(F)F)cc2nc(/C=C/C3CCC(C)(C)CC3)[nH]c12 [Compound 63, hydrochloride]    medium value
12  FC(F)(F)c1ccccc1-c1ccc2[nH]c(/C=C/C34CCC(Br)(CC3)CC4)nc2c1 [Compound 70]    medium value
13  Cc1cc(-c2ccccc2C(F)(F)F)cc2nc(/C=C/C3CCOCC3)[nH]c12 [Compound 53, hydrochloride]       low value
14  FC(F)(F)c1cccnc1-c1ccc2[nH]c(/C=C/C3CCOCC3)nc2c1 [Compound 62, hydrochloride]      high value
15  FC1(F)CCC(/C=C/c2nc3cc(-c4ccccc4C(F)(F)F)ccc3[nH]2)CC1 [Compound 30, hydrochloride salt]       low value
16  Cc1ccsc1-c1ccc2[nH]c(C=CC3CCCCC3)nc2c1 [Compound 17]    medium value
